Cited source: PubChem BioAssay (NCATS)

test system: CP325; test: qHTS profiling for inhibitors of Plasmodium falciparum proliferation (AID 504749); also: nearly all actives have a fitted effect of over 60% in size; conditions: P. falciparum in erythrocytes, SYBR Green DNA, 72 h; series mostly up to 28.7 µM
Results filed as inconclusive are left out. Active and inactive are the calls of the source. Calls follow the shape of the dose curve; as a rule, active = well fitted inhibition curve with a large enough effect; inconclusive = small, poorly fitted or top-dose-only effect; inactive = flat fitted curve, though single readings scatter.
Classes used: class 1 (active), class 0 (inactive)

• C[C@H]1OC(OC2C(O)[C@@H](O)C(OC3C(O)[C@@H](O)C(O)O[C@@H]3CO)O[C@@H]2CO)[C@H](O)C(O)C1N[C@H]1C=C(CO)[C@@H](O)[C@H](O)C1O (some centres undefined) = class 0
• CC1=C[C@@H](O)CC(C)(C)[C@@H]1/C=C/C(C)=C/C=C/C(C)=C/C=C/C=C(C)/C=C/C=C(C)/C=C/C1=C(C)C[C@H](O)CC1(C)C = class 0
• COC1CC2CCC(C)[C@](O)(O2)C(=O)C(=O)N2CCCCC2C(=O)OC(C(C)CC2CCC(O)C(OC)C2)CC(=O)C(C)/C=C(/C)C(O)C(OC)C(=O)C(C)CC(C)C=CC=C/C=C\1C (some centres undefined) = class 1
• CC(=O)CC(c1ccccc1)C1C(=O)Oc2ccccc2C1=O (centres undefined) = class 0
